Reference source: patent US4051129A

Please consider the recorded MIC for Shigella flexneri Komagome in what follows.

COMPOUND: C#CCSCC(=O)N[C@]1(OC)C(=O)N2C(C(=O)O)=C(CSc3nnnn3C)CS[C@@H]21 [drawing 9 / drawing 10]
MIC, µg/mL: 3.1

COMPOUND: C#CCSCC(=O)N[C@]1(OC)C(=O)N2C(C(=O)O)=C(COC(C)=O)CS[C@@H]21 [drawing 14 / OCOCH3]
MIC, µg/mL: 12.5

COMPOUND: CO[C@@]1(NC(=O)CSCN=[N+]=[N-])C(=O)N2C(C(=O)O)=C(CSc3nnnn3C)CS[C@@H]21 [N3 CH2 S / drawing 10]
MIC, µg/mL: 1.5

COMPOUND: CO[C@@]1(NC(=O)CSCC#N)C(=O)N2C(C(=O)O)=C(COC(C)=O)CS[C@@H]21 [NCCH2 S / OCOCH3]
MIC, µg/mL: 3.1

COMPOUND: CO[C@@]1(NC(=O)CSc2ccon2)C(=O)N2C(C(=O)O)=C(COC(C)=O)CS[C@@H]21 [drawing 13 / OCOCH3]
MIC, µg/mL: 6.2

COMPOUND: CO[C@@]1(NC(=O)CSc2ccon2)C(=O)N2C(C(=O)O)=C(CSc3nnnn3C)CS[C@@H]21 [drawing 12 / drawing 10]
MIC, µg/mL: 3.1

COMPOUND: CO[C@@]1(NC(=O)CSCN=[N+]=[N-])C(=O)N2C(C(=O)O)=C(COC(N)=O)CS[C@@H]21 [N3 CH2 S / OCONH2]
MIC, µg/mL: 3.1
